From: ChEMBL document CHEMBL5291721

Here's a batch of compounds along with measured AC50 for Adenosine receptor A1 (Homo sapiens, UniProt P30542).

>  <COMPOUND>
CCCCC(C)(O)C/C=C/[C@H]1[C@H](O)CC(=O)[C@@H]1CCCCCCC(=O)OC (some centres undefined) [MISOPROSTOL]

>  <ASSAYED SYSTEM>
Adenosine receptor A1 (Homo sapiens, UniProt P30542); also: assay procedure not described here
Sequence (P30542 whole entry): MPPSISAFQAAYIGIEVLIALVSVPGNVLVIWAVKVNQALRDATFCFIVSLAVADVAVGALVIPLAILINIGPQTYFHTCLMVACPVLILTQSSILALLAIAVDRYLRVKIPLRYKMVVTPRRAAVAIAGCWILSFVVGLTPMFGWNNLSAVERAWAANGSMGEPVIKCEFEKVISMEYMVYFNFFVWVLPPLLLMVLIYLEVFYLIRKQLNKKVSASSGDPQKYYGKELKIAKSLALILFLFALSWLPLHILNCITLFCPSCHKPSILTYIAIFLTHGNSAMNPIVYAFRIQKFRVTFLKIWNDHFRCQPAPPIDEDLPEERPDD

>  <AC50>
> 30 µM

$$$$
>  <COMPOUND>
Oc1ncnc2[nH]ncc12 [ALLOPURINOL]

>  <ASSAYED SYSTEM>
Adenosine receptor A1 (Homo sapiens, UniProt P30542); also: assay procedure not described here

>  <AC50>
> 30 µM

$$$$
>  <COMPOUND>
COc1ccc(C(=O)N2CCN(c3ccc4c(c3)CCC(=O)N4)CC2)cc1OC [VESNARINONE]

>  <ASSAYED SYSTEM>
Adenosine receptor A1 (Homo sapiens, UniProt P30542); also: assay procedure not described here

>  <AC50>
> 30 µM

$$$$
>  <COMPOUND>
C=C1C[C@@H]2[C@H](CC[C@]3(C)C(=O)CC[C@@H]23)[C@@]2(C)C=CC(=O)C=C12 [EXEMESTANE]

>  <ASSAYED SYSTEM>
Adenosine receptor A1 (Homo sapiens, UniProt P30542); also: assay procedure not described here

>  <AC50>
> 30 µM

$$$$
>  <COMPOUND>
N[C@@H](C(=O)N[C@@H]1C(=O)N2C(C(=O)O)=C(Cl)CS[C@H]12)c1ccccc1 [CEFACLOR ANHYDROUS]

>  <ASSAYED SYSTEM>
Adenosine receptor A1 (Homo sapiens, UniProt P30542); also: assay procedure not described here

>  <AC50>
> 30 µM

$$$$
>  <COMPOUND>
NC(=O)c1cnccn1 [PYRAZINAMIDE]

>  <ASSAYED SYSTEM>
Adenosine receptor A1 (Homo sapiens, UniProt P30542); also: assay procedure not described here

>  <AC50>
> 30 µM

$$$$
>  <COMPOUND>
C#C[C@]1(O)CC[C@H]2[C@@H]3CCc4cc(O)ccc4[C@H]3CC[C@@]21C [ETHINYL ESTRADIOL]

>  <ASSAYED SYSTEM>
Adenosine receptor A1 (Homo sapiens, UniProt P30542); also: assay procedure not described here

>  <AC50>
> 30 µM

$$$$
>  <COMPOUND>
CC1=CC(=O)c2ccccc2C1=O [MENADIONE]

>  <ASSAYED SYSTEM>
Adenosine receptor A1 (Homo sapiens, UniProt P30542); also: assay procedure not described here

>  <AC50>
> 30 µM

$$$$
>  <COMPOUND>
COC(=O)[C@H]1[C@@H](OC(=O)c2ccccc2)C[C@@H]2CC[C@H]1N2C [COCAINE]

>  <ASSAYED SYSTEM>
Adenosine receptor A1 (Homo sapiens, UniProt P30542); also: assay procedure not described here

>  <AC50>
> 30 µM

$$$$

----------
Here we list molecules with their recorded AC50 when tested on Muscarinic acetylcholine receptor M2 (Homo sapiens, UniProt P08172). Also: assay procedure not described here.
Sequence (P08172 whole entry): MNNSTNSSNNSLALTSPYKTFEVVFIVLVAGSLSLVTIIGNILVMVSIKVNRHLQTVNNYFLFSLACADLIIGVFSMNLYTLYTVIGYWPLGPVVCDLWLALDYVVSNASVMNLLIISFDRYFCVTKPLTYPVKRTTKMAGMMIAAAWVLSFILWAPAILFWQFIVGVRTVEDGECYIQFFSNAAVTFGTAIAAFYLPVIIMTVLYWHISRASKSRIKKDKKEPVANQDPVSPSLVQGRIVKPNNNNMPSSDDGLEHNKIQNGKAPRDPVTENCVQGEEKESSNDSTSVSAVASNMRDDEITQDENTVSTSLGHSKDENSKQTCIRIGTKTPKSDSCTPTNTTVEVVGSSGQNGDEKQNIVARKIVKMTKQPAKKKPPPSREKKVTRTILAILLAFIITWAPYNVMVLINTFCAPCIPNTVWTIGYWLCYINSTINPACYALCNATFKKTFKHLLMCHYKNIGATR

>  <MOLECULE>
COc1ccc2cccc(CCNC(C)=O)c2c1 [AGOMELATINE]

>  <AC50>
> 10 µM

$$$$
>  <MOLECULE>
CC(C)[N+](C)(CCC(C(N)=O)(c1ccccc1)c1ccccc1)C(C)C [ISOPROPAMIDE]

>  <AC50>
0.012 µM

$$$$
>  <MOLECULE>
Oc1ncnc2[nH]ncc12 [ALLOPURINOL]

>  <AC50>
> 10 µM

$$$$
>  <MOLECULE>
CN1CCCN=C1COC(=O)C(O)(c1ccccc1)C1CCCCC1 (centres undefined) [OXYPHENCYCLIMINE]

>  <AC50>
0.0263 µM

$$$$
>  <MOLECULE>
CC(C)NCC(O)COc1ccc(COCCOC(C)C)cc1 (centres undefined) [BISOPROLOL]

>  <AC50>
> 10 µM

$$$$
>  <MOLECULE>
O=C1CCC(N2C(=O)c3ccccc3C2=O)C(=O)N1 (centres undefined) [THALIDOMIDE]

>  <AC50>
> 10 µM

$$$$
>  <MOLECULE>
Cc1cc(-c2ccccc2)nnc1NCCN1CCOCC1 [MINAPRINE]

>  <AC50>
> 10 µM

$$$$
>  <MOLECULE>
COc1cc(Nc2c(C#N)cnc3cc(OCCCN4CCN(C)CC4)c(OC)cc23)c(Cl)cc1Cl [BOSUTINIB]

>  <AC50>
6.04 µM

$$$$
>  <MOLECULE>
Cc1ccc(-c2nc3ccc(C)cn3c2CC(=O)N(C)C)cc1 [ZOLPIDEM]

>  <AC50>
> 10 µM

$$$$
>  <MOLECULE>
NC(N)=Nc1nc(CSCCC(N)=NS(N)(=O)=O)cs1 [FAMOTIDINE]

>  <AC50>
> 10 µM

$$$$
>  <MOLECULE>
Nc1nc(N)c2nc(-c3ccccc3)c(N)nc2n1

>  <AC50>
> 10 µM

$$$$
>  <MOLECULE>
CC(C(=O)O)c1ccc(N2CC=CC2)c(Cl)c1 (centres undefined) [PIRPROFEN]

>  <AC50>
> 10 µM

$$$$
>  <MOLECULE>
NS(=O)(=O)c1cc2c(cc1Cl)NCNS2(=O)=O [HYDROCHLOROTHIAZIDE]

>  <AC50>
> 10 µM

$$$$
>  <MOLECULE>
C=C1C[C@@H]2[C@H](CC[C@]3(C)C(=O)CC[C@@H]23)[C@@]2(C)C=CC(=O)C=C12 [EXEMESTANE]

>  <AC50>
> 10 µM

$$$$
